Attribute: raw competing-Ab binding signal
tested.on: T1, human Sdc2 (human, UniProt P34741 19-144, limits assumed)
T1 construct: Antigen of the Octet tandem binning, loaded on biosensors at 100 nM; also called huSdc2; hSdc2
assay.explanation: Octet tandem binning; saturating Ab f12 19838-6-N03-A

Solved cases (3 shown):
R4M-P3-A12 (antibody, human IgG1, kappa, V domains shown) VH: EVQLVESGGGVVQPGGSLRLSCAASGFTFSDHYMSWIRQAPGKGLEWVSYLSGSGTSIYYADSVKGRFTISRDNAKKSLYLQMNSLRAEDTAVYYCARVGPAAGNAFDIWGQGTMVTVSS VL: QSVLTQPPSASGTPGQRVTISCSGSSSNIGSNYVYWYQQLPGTAPKLLIYRNNQRPSGVPDRFSGSKSGTSASLAITGLQAEDEADYYCQSYDSSLSGVVFGGGTKLTVLR ... 0.136
R3-P3-C11 (antibody, human IgG1, kappa, V domains shown, human IgG1 kappa from the phage campaign) VH: EVQLVESGGGLVQPGRSLRLACEASGFTFNNYAVHWVRQAPGKGLEWVAVISYDGTNKYYSDSMKGRFTISRDNSKNTLYLQINSLRVEDTAVYFCARGNYVRRDSFDIWGQGTMVTVSS VL: DIQMTQSPPSLSASVGDRVTITCRASQSISSYLNWYQQKPGKAPKLLIYGASSLQSGVPLRFSGSGSGADFTLTISSLQPEDFATYYCQQSYISPITFGQGTRLEIKR ... 0.697
6-N03-A (antibody, mouse IgG1, kappa, V domains shown) VH: EVQLVESGGGLVKPGGSLKLSCEASGITFSNYVMSWVRQTPEKRLEWVATISDGGSYTYYPDNVKGRFTISRDNAKNNLYLQMSHLKSEDTAMYYCVRDRYDYDGRVYAMDYWGQGTSVTVSS VL: DVVMTQTPLSLPVSLGDQASISCRSSQSLVHSNGDTYLHWYLQKPGQSPKLLIYKVSNRFSGVPDRFSGSGSGTDFTLKITRVEAEDLGVYFCSQSTHVPWTFGGGTKLEIKR ... 0.0194

**Query** Item under review: R3-P3-E09 (antibody, human IgG1, kappa, V domains shown, human IgG1 kappa from the phage campaign) VH: EVQLVETGGGVVQPGRSLTLSCGASEFTFSNYAMHWVRQAPGKGLEWVAVISYDGTKKYYGDSVKGRFTISRENIKNTLYLQMNSLRSEDTAVYYCARDVGKGVTATGTFDIWGQGTMVTVSS VL: AIRMTQSPSSLSASVGDRVTITCRASQGIGSYLAWFQQKPGEAPKSLIIDATRLKSGVPSRFSGSGSGTEFALTISSLRPEDFATYYCQQYNVSPLTFGGGTKVEIKR . Reported raw competing-Ab binding signal?
**Result** 0.518
